Below: a set of entries, each annotated with reported GI50.
# System: MCF7 breast
# assay name: NCI tumour cell line growth inhibition, 48 h

Illustrative cases are given below, each with its answer.
• CN(C)CCCOc1cccc(NC2=C(Cl)C(=O)C(Nc3cccc(OCCCN(C)C)c3)=C(Cl)C2=O)c1 = 184 nM
• FC(F)(F)c1ccc(-c2nn3ncccc3c2-c2ccnc(Nc3ccc4c(c3)OCCO4)n2)cc1 = 8040 nM
• C=C(CN1CCc2c([nH]c3ccccc23)C1)c1ccc(C(=O)Nc2ccccc2N)cc1 = 3980 nM
• CCn1cc(/C=C2\Oc3cc(OCC#N)ccc3C2=O)c2cc(OC)ccc21 = 209 nM
• COc1ccc(C2=NC(=O)NC2c2ccc(OC)cc2)cc1 (centres undefined) = 4340 nM
• CC(=O)c1ccc2c(c1)N(CCCN1CCN(CCO)CC1)c1ccccc1S2 = 1780 nM

Could you tell me which GI50 is on file for CCOC(=O)c1ccc(NC(=O)NC2=NCCS2)cc1 ?
517 nM

Could you tell me which GI50 is on file for c1ccc(-c2nc3n(c2-c2ccc4c(c2)OCO4)CCC3)nc1 ?
7890 nM

Could you tell me which GI50 is on file for COc1ccc(Nc2nc(Nc3cc(C)[nH]n3)c3cc(OC)c(OC)cc3n2)cc1 ?
457 nM

* * *

# System: MOLT-4 leukemia
# assay name: NCI tumour cell line growth inhibition, 48 h
Below: a set of entries, each annotated with reported log10 of TGI.
Hello, just confirming the data are log10 of TGI with units of µM.

Illustrative cases are given below, each with its answer.
• O=C1CCCC/C1=C\c1ccc([N+](=O)[O-])cc1 = 1.48
• CC1=Nc2ccccc2SC(c2c(Cl)cccc2Cl)C1 (stereo not given) = 1.09
• CCc1ccc2[nH]c(O)c(C3=Nc4ccccc4C3=O)c2c1 = 1.81
• Cc1ccc(S(=O)C[C@](NC(=O)OCc2ccccc2)(Sc2ccccc2)C(F)F)cc1 (stereo not given in full) = 1.35

Could you tell me which log10 of TGI is on file for Nc1nc(N)c2cc(Sc3ccc4ccccc4c3)ccc2n1 ?
0.74

* * *

# Tested on: HCC-2998 colon
# assay name: NCI tumour cell line growth inhibition, 48 h
Below: a set of entries, each annotated with reported TGI.
Could you give me the number in µM? Just the number is fine.

Illustrative cases are given below, each with its answer.
* CCCC1(CN2c3ccccc3Sc3ccc(Cl)cc32)CCN(CC)C1 (centres undefined) | 3.27
* c1cc2c3c(c1)c1cc4c(cc1c[n+]3CC2)OCO4 | 10.4
* C=C1C(=O)O[C@H]2[C@H]1CC/C(COC(=O)NCc1ccc(Cn3c(=O)sn(CCCCC)c3=O)cc1)=C\CC[C@@]1(C)O[C@@H]21 | 11.1
* CC(=O)/C=C/c1ccc(Nc2c3ccccc3nc3occ(Cl)c23)cc1 | 14.6
* Clc1ccc2c(NCCCCN3OC3c3ccccc3)ccnc2c1 (centres undefined) | 11.1

Could you tell me which TGI is on file for Cn1c(=Nc2ccc(Cl)cc2)sc2ccccc21 ?
68.3

Could you tell me which TGI is on file for CCCc1nc(Cl)nc(Cl)c1Cl ?
4.57

* * *

# Tested on: NCI/ADR-RES ovarian
# assay name: NCI tumour cell line growth inhibition, 48 h
measured parameter: TGI (µM)
Could you give me the number in µM? Just the number is fine.

• Clc1ccc(/C=C/c2ccc3ccccc3n2)cc1 = 29.4

Moving on to the next molecule.
Form: Entry = Cn1cc(-c2cc(-c3cn(C)c4ccc(Cl)cc34)[nH]n2)c2cc(Cl)ccc21 | System = NCI/ADR-RES ovarian | TGI = ____
6.59

* * *

Below: a set of entries, each annotated with reported TGI.
# Test system: M14 melanoma
# assay name: NCI tumour cell line growth inhibition, 48 h

Illustrative cases are given below, each with its answer.
• O=C1NC(Nc2ccccc2)=N/C1=C\c1c(Cl)cccc1Cl = 83.5 µM
• COc1ccc(C2=[S+]C(c3ccccc3)(c3ccccc3)c3ccccc32)cc1 = 31.4 µM
• COc1cc2c(c3c1c(=O)c1ccccc1n3C)C=CC(C)(C)O2 = > 100 µM
• CCC(C)C(N)C(=O)N/N=C\c1c2c(nc3ccccc13)-c1cc3c(c(=O)n1C2)COC(=O)[C@]3(O)CC (stereo not given in full) = 1.6 µM

Form: Entry = COc1ccc(C2=NC(=O)NC2c2ccc(OC)cc2)cc1 (stereo not given) | System = M14 melanoma | TGI = ____
25.4 µM

Form: Entry = CC(NC(=O)Cc1ccc(C(F)(F)P(=O)(OCc2ccc([N+](=O)[O-])o2)N(C)CCCCCl)cc1)c1ccc(OCC2CCCCC2)c(C(N)=O)c1 (stereo not given) | System = M14 melanoma | TGI = ____
1.99 µM

Form: Entry = O=C(Cn1cc(Br)c(=O)[nH]c1=O)c1ccc(-c2ccccc2)cc1 | System = M14 melanoma | TGI = ____
> 24.1 µM

Form: Entry = CCSc1ccc([C@@H]2[C@@H](O)C(=O)N2c2cc(OC)c(OC)c(OC)c2)cc1 | System = M14 melanoma | TGI = ____
15.8 µM

Form: Entry = CCCN(CCC)c1ccc(C=O)c(Cl)c1 | System = M14 melanoma | TGI = ____
> 100 µM

Form: Entry = Cc1cccc2oc3c(c(=O)c12)CC(O)C(C)(C)O3 (stereo not given) | System = M14 melanoma | TGI = ____
> 100 µM

* * *

Below: a set of entries, each annotated with reported TGI.
# System: HCT-15 colon
# assay name: NCI tumour cell line growth inhibition, 48 h
Could you give me the number in µM? Just the number is fine.

Illustrative cases are given below, each with its answer.
- ClCc1cccc(Cn2cnc3c(Cl)nc(Cl)nc32)c1: 6.84
- COc1ccc2c(c1)C(=O)/C(=C/c1cccc(OCC(=O)Nc3nc(C)c(C)s3)c1)O2: 2.98
- O=C(O)c1nc2ccc(C(F)(F)F)cc2nc1Nc1ccc(Cl)c(Cl)c1: 22.6

Moving on to the next compound.
Could you tell me which TGI is on file for C[C@@H](C[C@H]1OC(C)(C)O[C@@H]1C(C)(C)O)[C@H]1CC=C2[C@]3(C)[C@H](O)C[C@H]4C(C)(C)[C@H](O)CC[C@]4(C)[C@H]3CC[C@]21C ?
14.9

* * *

# Test system: LOX IMVI melanoma
# assay name: NCI tumour cell line growth inhibition, 48 h; in the data active = GI50 below about 0.43 µM; inactive = the rest
Your answer must be one of the following: active, inactive

Consider the worked cases shown below.
• COc1cc(OC)c2sc(-c3ccc(-n4cncc4-c4ccc(OC)c(OC)c4)cc3)nc2c1 = inactive
• O=C(c1ccc2ccccc2c1)c1nc2cc(F)ccc2[n+]([O-])c1C(F)(F)F = inactive

What is the recorded call for this molecule in the test? CCCN(CCC)c1ccc(C=O)c(Cl)c1
inactive

What is the recorded call for this molecule in the test? NC(=O)c1cccnc1
inactive

What is the recorded call for this molecule in the test? CC(NC(=O)Cc1ccc(C(F)(F)P(=O)(OCc2ccc([N+](=O)[O-])o2)N(C)CCCCCl)cc1)c1ccc(OCC2CCCCC2)c(C(N)=O)c1 (centres undefined)
inactive

* * *

# Test system: UO-31 renal
# assay name: NCI tumour cell line growth inhibition, 48 h
measured parameter: TGI (µM)
Could you give me the number in µM? Just the number is fine.

Illustrative cases are given below, each with its answer.
* Clc1ccccc1CN1COc2c(ccc3cccnc23)C1 | 7.2
* CC(=O)c1ccc2c(c1)N(CCCN1CCN(CCO)CC1)c1ccccc1S2 | 5.46

Moving on to the next compound.
Form: Entry = CC(C)(C)OC(=O)N1NC(c2ccccc2)CC1c1ccccc1 (stereo unspecified) | System = UO-31 renal | TGI = ____
53.2

* * *

# Tested on: 786-0 renal
# assay name: NCI tumour cell line growth inhibition, 48 h; in the data active means GI50 below about 0.43 µM; inactive means the rest
Your answer must be one of the following: active, inactive

Consider the worked cases shown below.
• COc1cc(C2=NN(C(C)=O)C(c3cc(OC)c(OC)c(OC)c3)C2)ccc1O (stereo unspecified) = inactive
• ClCc1cccc(Cn2cnc3c(Cl)nc(Cl)nc32)c1 = inactive
• c1ccc(-c2nc3n(c2-c2ccc4c(c2)OCO4)CCC3)nc1 = inactive
• Nc1c(C(=O)c2cccc(C#CCN3CCCCC3)c2)cnn1-c1ccc(F)cc1 = inactive
• Cn1cc(-c2cc(-c3cn(C)c4ccc(Cl)cc34)[nH]n2)c2cc(Cl)ccc21 = inactive
• CN(Cc1ccc(F)cc1)c1ccc(CO)c(Cl)c1 = inactive
• CCCCCCNCCCNc1c2cc(OC)ccc2nc2cccc([N+](=O)[O-])c12 = inactive
• CCSc1ccc([C@@H]2[C@@H](O)C(=O)N2c2cc(OC)c(OC)c(OC)c2)cc1 = active

What is the recorded call for this molecule in the test? CC(=O)c1ccc2c(c1)N(CCCN1CCN(CCO)CC1)c1ccccc1S2
inactive

What is the recorded call for this molecule in the test? COc1ccc(Nc2nc(Nc3cc(C)[nH]n3)c3cc(OC)c(OC)cc3n2)cc1
inactive

What is the recorded call for this molecule in the test? COc1ccc(C(=O)c2sc3nc(-c4ccccc4OC)ccc3c2N)cc1OC
inactive
